- Experiment: Additive decomposition of peak excitation and emission wavelengths (model coefficients of A and B groups)
- Measurement setup: influence of A group on peak emission wavelength, A group 1 as baseline
Recorded endpoint: αi^em (nm)

Known results for compounds:
[[record]]
chemical_smiles = "O=Cc1cccc2ccccc12"
reported = "−15.0"

[[record]]
chemical_smiles = "COc1ccccc1C=O"
reported = "−17.6"

[[record]]
chemical_smiles = "O=Cc1c[nH]c2ccccc12"
reported = "−24.2"

[[record]]
chemical_smiles = "O=Cc1ccc(-c2ccccc2)cc1"
reported = "−46.6"

[[record]]
chemical_smiles = "COc1cc(OC)c(OC)cc1C=O"
reported = 22.2

[[record]]
chemical_smiles = "O=Cc1ccc2c(c1)Cc1ccccc1-2"
reported = 44.9


1. O=Cc1c2ccccc2cc2ccccc12
2. O=Cc1ccc2ccccc2c1
3. Cc1ccc(C=O)cc1
4. COc1ccc(C=O)c2ccccc12
5. O=Cc1ccc(Br)cc1
INPUT: Arrange these 5 compounds in increasing order of αi^em. Provide the labels, sequenced as the question asks.
OUTPUT: 2, 4, 5, 3, 1

###

- Experiment: Additive decomposition of peak excitation and emission wavelengths (model coefficients of A and B groups)
- Measurement setup: influence of B group on peak excitation wavelength, B group 1 as baseline
Recorded endpoint: βj^ex (nm)

[[record]]
compound = "Cc1cnc2c(ccc3c(C)c(C)c[n+](C)c32)c1C.[I-] [B group 14]"
recorded_endpoint = "βj^ex"
reported = 100.6

[[record]]
compound = "Cc1ccnc(-c2cc(C)cc[n+]2C)c1.[I-] [B group 10]"
recorded_endpoint = "βj^ex"
reported = 1.6

[[record]]
compound = "Cc1cc[n+](C)cc1.[I-] [B group 1]"
recorded_endpoint = "βj^ex"
reported = 0.0

[[record]]
compound = "Cc1ccc[n+](C)c1C.[I-] [B group 4]"
recorded_endpoint = "βj^ex"
reported = "−32.3"

[[record]]
compound = "Cc1cc[n+](C)c(Br)c1.[I-] [B group 6]"
recorded_endpoint = "βj^ex"
reported = 27.7


P. Cc1ccc2ccccc2[n+]1C.[I-] [B group 8]
Q. Cc1cc[n+](C23CC4CC(CC(C4)C2)C3)cc1.[Br-] [B group 2]
INPUT: Lab note: record which item had the higher βj^ex, P or Q . Use the label to indicate which entry you chose.
OUTPUT: P
(P: 53.0 nm, Q: 4.9 nm)

###

- Experiment: Additive decomposition of peak excitation and emission wavelengths (model coefficients of A and B groups)
- Measurement setup: influence of B group on peak emission wavelength, B group 1 as baseline
Recorded endpoint: βj^em (nm)

Known results for molecules:
[[record]]
chemical_smiles = "Cc1cc(C)[n+](C)c(C)c1.[I-]"
reported = "−1.8"

[[record]]
chemical_smiles = "Cc1ccc[n+](C)c1C.[I-]"
reported = "−23.2"

[[record]]
chemical_smiles = "Cc1cnc2c(ccc3c(C)c(C)c[n+](C)c32)c1C.[I-]"
reported = 57.9


I. Cc1cc[n+](C)c(C)c1.[I-]
II. Cc1cc[n+](C23CC4CC(CC(C4)C2)C3)cc1.[Br-]
INPUT: I'm curious whether I or II has the smaller βj^em number. Which is it? Use the label to indicate which entry you chose.
OUTPUT: I

P. CCc1ccc(C)[n+](C)c1.[I-]
Q. Cc1ccc2ccccc2[n+]1C.[I-]
R. Cc1ccnc(-c2cc(C)cc[n+]2C)c1.[I-]
INPUT: Arrange these 3 molecules in increasing order of βj^em. Provide the labels, sequenced as the question asks.
OUTPUT: P, R, Q
(P: −7.6 nm, R: 19.8 nm, Q: 64.8 nm)

A. Cc1cccc(C)[n+]1C.[I-]
B. Cc1cc[n+](C)c2ccccc12.[I-]
INPUT: Lab note: record which item had the higher βj^em, A or B . Use the label to indicate which entry you chose.
OUTPUT: B
